experimental-system: full-length beta-Catenin (Uniprot ID P35222) (Homo sapiens (Human)) (UniProt P35222)
assay-protocol: fluorescence polarization competition; full-length beta-catenin, 5FAM-TCF4(10-53) probe
pIC50: −log10 of the molar value. Starred links: 1 amine or outer side, 2 acyl side, 3 side chain; linkers in the order of their positions; H or OH if unused. Positions of bridges follow the written chain, without caps; N, C: chain ends. Non-standard residues stand in square brackets, D forms with d. Primed or numbered codes have the meaning given here. PyrS2″ = (S)-3-amino-1-((pent-4-en-1-yloxy)carbonyl)pyrrolidine-3-carboxylic acid (stapling residue), C=CCCCOC(=O)N1CC[C@@](N[*:1])(C(=O)[*:2])C1; B5(4) = 2,2-bis(4-pentenyl)glycine = 2-amino-2-(pent-4-en-1-yl)hept-6-enoic acid (stitching residue), C=CCCCC(CCCC=C)(N[*:1])C(=O)[*:2]; B5(5) = 2,2-bis(4-pentenyl)glycine, 2-amino-2-(pent-4-en-1-yl)hept-6-enoic acid (stitching residue), C=CCCCC(CCCC=C)(N[*:1])C(=O)[*:2]; TfeGA = (S)-2-amino-3-((carboxymethyl)(2,2,2-trifluoroethyl)amino)propanoic acid, O=C([C@H](CN(CC(=O)[*:3])CC(F)(F)F)N[*:1])[*:2]; PyrS2 = (S)-3-amino-1-((pent-4-en-1-yloxy)carbonyl)pyrrolidine-3-carboxylic acid, C=CCCCOC(=O)N1CC[C@@](N[*:1])(C(=O)[*:2])C1; PyrS2(5) = (S)-3-amino-1-((alkenyloxy)carbonyl)pyrrolidine-3-carboxylic acid, carbamate stapling residue; 2COOHF = (S)-2-(2-amino-2-carboxyethyl)benzoic acid, O=C([C@H](Cc1ccccc1C(=O)[*:3])N[*:1])[*:2]; B5(3) = 2,2-bis(4-pentenyl)glycine (stitching residue), C=CCCCC(CCCC=C)(N[*:1])C(=O)[*:2]; B5 = 2-amino-2-(pent-4-en-1-yl)hept-6-enoic acid, C=CCCCC(CCCC=C)(N[*:1])C(=O)[*:2]; Phe(3-COOH) = N[C@@H](Cc1cccc(C(=O)O)c1)C(=O)O; Phe(3-Br) = N[C@@H](Cc1cccc(Br)c1)C(=O)O; Phe(2-Cl) = N[C@@H](Cc1ccccc1Cl)C(=O)O; Bta = N[C@@H](Cc1csc2ccccc12)C(=O)O; αAllylPro = C=CC[C@@]1(C(=O)O)CCCN1; tBuAla = CC(C)(C)C[C@H](N)C(=O)O; 3Thi = N[C@@H](Cc1ccsc1)C(=O)O; S8 = C=CCCCCCC[C@](C)(N)C(=O)O; Thr(ol) = C[C@@H](O)[C@H](N)CO; hSer = N[C@@H](CCO)C(=O)O
endpoint: pIC50

A selection of reference data follows.
| binder | endpoint | reported-result |
| --- | --- | --- |
| Ac-[αAllylPro]D[tBuAla][B5(3)]D[TfeGA]AAFF[S8][Phe(2-Cl)][Bta]Q-NH2 (staple 1-4, 4-11) [I-931] | pIC50 | 6.66 |
| Ac-[αAllylPro]D[tBuAla][B5]NTAAFH[PyrS2][3Thi][Bta]Q-NH2 (staple 1-4, 4-11; also: earlier eluting HPLC isomer) [I-2146] | pIC50 | 6.61 |
| Ac-[αAllylPro]D[tBuAla][B5(5)]D[2COOHF]AAFF[PyrS2(5)][3Thi][Bta][Thr(ol)] (staple 1-4, 4-11; also: staple isomer, later-eluting HPLC peak) [I-1669] | pIC50 | 7.52 |
| Ac-[αAllylPro]D[tBuAla][B5(5)]D[TfeGA]AAFN[PyrS2″][3Thi][Bta]T-NH2 (staple 1-4, 4-11; also: staple isomer composition, later-eluting HPLC peak) [I-943] | pIC50 | 5.70 |
| Ac-[αAllylPro]D[tBuAla][B5(4)]D[TfeGA]AAFN[PyrS2″][3Thi][Bta][hSer]-NH2 (staple 1-4, 4-11; also: earlier-eluting staple isomer composition) [I-950] | pIC50 | 5.79 |
| Ac-[αAllylPro]D[tBuAla][B5]D[TfeGA]AAFN[PyrS2][3Thi][Bta][hSer]-NH2 (staple 1-4, 4-11; also: later-eluting staple isomer composition) [I-951] | pIC50 | 5.83 |

A = Ac-[αAllylPro]D[tBuAla][B5]D[Phe(3-COOH)]AAFL[PyrS2][Phe(3-Br)]FQ-NH2 (staple 1-4, 4-11) [I-2153]
B = Ac-[αAllylPro]D[tBuAla][B5(5)]D[2COOHF]AAFF[PyrS2″][3Thi][Bta][Thr(ol)] (staple 1-4, 4-11; also: staple isomer, earlier-eluting HPLC peak) [I-1668]
C = Ac-[αAllylPro]D[tBuAla][B5]TTAAFN[PyrS2][3Thi][Bta]Q-NH2 (staple 1-4, 4-11; also: later eluting HPLC isomer) [I-2149]
D = Ac-[αAllylPro]D[tBuAla][B5]NTAAFN[PyrS2][3Thi][Bta]A-NH2 (staple 1-4, 4-11; also: later eluting HPLC isomer) [I-2143]
E = Ac-[αAllylPro]D[tBuAla][B5(5)]D[2COOHF]AAFF[PyrS2″][Phe(2-Cl)][Bta]S-NH2 (staple 1-4, 4-11) [I-1662]
// sort entries: pIC50, high to low Please list each label once, in the requested order. B, E, D, A, C
